- experimentalSystem: URAT1 (SLC22A12) (Homo sapiens (Human), UniProt Q96S37)
- Sequence (Q96S37 whole entry): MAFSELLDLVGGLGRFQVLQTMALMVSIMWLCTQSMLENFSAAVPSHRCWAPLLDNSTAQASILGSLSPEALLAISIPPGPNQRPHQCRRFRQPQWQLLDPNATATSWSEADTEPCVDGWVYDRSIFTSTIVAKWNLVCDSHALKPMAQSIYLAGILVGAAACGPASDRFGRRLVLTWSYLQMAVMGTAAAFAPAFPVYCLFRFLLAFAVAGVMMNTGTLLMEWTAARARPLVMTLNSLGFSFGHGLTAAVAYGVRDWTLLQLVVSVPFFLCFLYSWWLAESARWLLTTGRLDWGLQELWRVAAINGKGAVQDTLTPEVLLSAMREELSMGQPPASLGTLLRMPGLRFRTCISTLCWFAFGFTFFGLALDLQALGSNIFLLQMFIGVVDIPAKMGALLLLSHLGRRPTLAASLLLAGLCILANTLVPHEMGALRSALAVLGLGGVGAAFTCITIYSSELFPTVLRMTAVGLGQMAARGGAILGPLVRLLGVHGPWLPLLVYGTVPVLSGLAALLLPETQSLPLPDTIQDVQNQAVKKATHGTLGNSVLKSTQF
- protocolDetails: URAT1 cellular uptake assay (3H-orotate transport, stably transfected URAT-1/CHO cells)
- Assay type: cell-based
- assayContext: 3H-orotate uptake, 7 concentrations 0.01 to 150 μM, read-out: URAT1 IC50 (μM ± SEM)
Assign IC50 to each entry below.
One number for each entry, in µM.

The following molecules have reported results that may help.
O=C(Nc1ccc(O)cc1)c1c(O)[nH]c(=O)[nH]c1=O [4′-hydroxy-2-oxo-desthiomerbarone]    2.6
O=C(Nc1ccccc1)c1c(O)[nH]c(=O)[nH]c1=O    1.2
O=C(Nc1ccc(O)cc1)c1c(O)[nH]c(=S)[nH]c1=O [4′-hydroxymerbarone]    9.4

# input for lookup
Prompt: Quick check: IC50 of O=C1NC(=S)NC(=O)C1C(=O)Nc1ccccc1 [Merbarone, reference compound] ?
Completion: 5.4
